# target.under.test: ΔF508-CFTR (Homo sapiens, UniProt P13569, DEL508-508)
# Sequence (P13569 with tags, fused parts or gaps DEL508-508): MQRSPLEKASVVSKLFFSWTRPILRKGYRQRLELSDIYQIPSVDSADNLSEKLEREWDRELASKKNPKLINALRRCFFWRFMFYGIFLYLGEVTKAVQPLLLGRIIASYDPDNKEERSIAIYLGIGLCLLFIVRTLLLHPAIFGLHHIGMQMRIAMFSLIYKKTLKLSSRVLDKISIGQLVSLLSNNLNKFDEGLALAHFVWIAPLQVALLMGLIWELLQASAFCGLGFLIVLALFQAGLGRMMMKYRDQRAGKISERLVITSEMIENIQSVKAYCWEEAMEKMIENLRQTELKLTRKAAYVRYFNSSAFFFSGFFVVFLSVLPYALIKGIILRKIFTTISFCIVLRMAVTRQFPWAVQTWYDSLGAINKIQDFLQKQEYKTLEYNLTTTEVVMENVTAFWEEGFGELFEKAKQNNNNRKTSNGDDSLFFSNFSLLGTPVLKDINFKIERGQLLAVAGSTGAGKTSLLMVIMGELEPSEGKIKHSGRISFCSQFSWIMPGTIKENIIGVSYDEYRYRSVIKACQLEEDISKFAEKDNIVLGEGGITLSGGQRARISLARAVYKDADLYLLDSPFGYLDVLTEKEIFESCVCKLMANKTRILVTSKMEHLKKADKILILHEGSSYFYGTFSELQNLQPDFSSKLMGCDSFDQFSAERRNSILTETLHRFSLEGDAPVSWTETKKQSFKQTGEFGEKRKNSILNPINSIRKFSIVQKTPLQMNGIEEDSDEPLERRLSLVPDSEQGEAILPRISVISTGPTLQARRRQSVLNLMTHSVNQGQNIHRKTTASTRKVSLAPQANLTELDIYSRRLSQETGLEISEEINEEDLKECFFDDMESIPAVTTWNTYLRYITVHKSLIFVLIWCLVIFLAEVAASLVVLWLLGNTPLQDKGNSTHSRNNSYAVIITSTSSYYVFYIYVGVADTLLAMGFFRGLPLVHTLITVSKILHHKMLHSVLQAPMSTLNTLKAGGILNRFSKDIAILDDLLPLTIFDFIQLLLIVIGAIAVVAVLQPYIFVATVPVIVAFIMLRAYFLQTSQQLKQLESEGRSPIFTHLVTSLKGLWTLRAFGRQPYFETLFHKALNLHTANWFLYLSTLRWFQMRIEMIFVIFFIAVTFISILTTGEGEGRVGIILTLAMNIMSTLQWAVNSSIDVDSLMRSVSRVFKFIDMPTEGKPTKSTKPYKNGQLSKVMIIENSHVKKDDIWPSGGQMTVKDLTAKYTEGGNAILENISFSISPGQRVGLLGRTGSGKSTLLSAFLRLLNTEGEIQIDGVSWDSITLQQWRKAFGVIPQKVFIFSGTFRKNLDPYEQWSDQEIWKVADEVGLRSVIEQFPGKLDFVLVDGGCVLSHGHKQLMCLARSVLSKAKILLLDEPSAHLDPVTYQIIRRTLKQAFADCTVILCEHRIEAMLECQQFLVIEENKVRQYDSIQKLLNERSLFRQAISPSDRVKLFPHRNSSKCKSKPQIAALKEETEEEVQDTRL
# Assay type: cell-based
# Design: which was then ligated into full length pNUT-CFTR linearized using Hpa1 and Pml1; expressed in transfected cells
# stated.conditions: Prestwick library, initial corrector assay; standard deviations above untreated controls
Structures can show the parent of a compound that is named as a salt.
metric.name: hit in screen (score)

molecule: CC(C)Cc1ccc([C@H](C)C(=O)O)cc1 [S-(+)-Ibuorofen]
data.value: 1.1
//
molecule: O=C([O-])c1ccccc1-c1c2cc(Br)c(=O)cc-2oc2[c]([Hg+])c([O-])c(Br)cc12.[Na+].[Na+].[OH-]
data.value: 3.6
//
molecule: O=C(O)[C@H](O)[C@@H](O)[C@H](O[C@@H]1O[C@H](CO)[C@H](O)[C@H](O)[C@H]1O)[C@H](O)CO
data.value: 1.2

Input CC(C(=O)O)c1cccc(Oc2ccccc2)c1 (stereo not shown) [Fenoprofen calcium salt dihydrate] . Output hit in screen (score): 1.1
